Molecular target: Fes (UniProt P07332)
Sequence (P07332 whole entry, looked up): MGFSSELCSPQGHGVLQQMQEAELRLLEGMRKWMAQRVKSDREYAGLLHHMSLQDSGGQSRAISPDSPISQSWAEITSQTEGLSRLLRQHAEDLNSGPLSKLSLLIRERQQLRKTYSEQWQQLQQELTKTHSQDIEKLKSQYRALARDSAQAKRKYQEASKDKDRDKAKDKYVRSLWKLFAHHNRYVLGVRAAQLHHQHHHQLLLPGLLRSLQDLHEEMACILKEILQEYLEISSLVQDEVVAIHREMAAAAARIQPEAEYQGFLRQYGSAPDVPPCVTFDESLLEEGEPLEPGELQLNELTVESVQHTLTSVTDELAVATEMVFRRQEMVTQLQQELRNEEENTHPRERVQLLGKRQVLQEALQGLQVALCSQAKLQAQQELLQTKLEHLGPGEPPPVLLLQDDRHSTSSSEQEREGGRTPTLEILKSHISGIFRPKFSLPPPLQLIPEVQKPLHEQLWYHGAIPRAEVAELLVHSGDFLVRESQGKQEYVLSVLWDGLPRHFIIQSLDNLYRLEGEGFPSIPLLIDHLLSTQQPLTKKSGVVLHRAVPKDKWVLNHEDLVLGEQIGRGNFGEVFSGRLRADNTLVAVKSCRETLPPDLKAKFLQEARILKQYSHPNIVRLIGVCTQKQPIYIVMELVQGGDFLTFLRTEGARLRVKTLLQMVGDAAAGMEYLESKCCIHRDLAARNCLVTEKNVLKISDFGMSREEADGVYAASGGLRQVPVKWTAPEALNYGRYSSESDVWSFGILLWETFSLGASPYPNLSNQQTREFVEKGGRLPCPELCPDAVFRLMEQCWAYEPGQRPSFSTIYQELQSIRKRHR
Assay: phosphorylation enrichment, bacterial display (enrichment ratio); higher = better substrate or ligand; peptides without Tyr show the background;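 also: 11-residue human phosphosite peptides and single-mutation variants displayed on the E. coli surface, counted by deep sequencing, each peptide's frequency after selection divided by its frequency in the unselected input library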;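 also: frequency after pTyr selection over input frequency; kinase dosed for 20-30% of maximal phosphorylation in three min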
metric name: phosphorylation enrichment

Given the sequence FRQLPYCPSVE [CTNND2_Y508_Q507P_YF] , write its reported phosphorylation enrichment.
1.39

Supply reported phosphorylation enrichment belonging to this sequence: HPYNSYTYPRL [PAK5_Y316_S312P]
0.875

Please report the measured phosphorylation enrichment for EPSVDCCVVKI [CAD_Y735_Y735C]
1.18

State its phosphorylation enrichment for this sequence: GQDLFYEDEDL [PACS1_Y303]
1.39

Supply measured phosphorylation enrichment of LQTYHYHGHSM [PDHA1_Y289_R288H] in your reply.
0.943

Return value of phosphorylation enrichment for input WTAHSYRMGST [ARHGEF7_Y785] , no commentary.
0.659

Please list phosphorylation enrichment recorded for the sequence DSNLIYSQIWS [FCRL3_Y662_P660L]
12.2

Quote phosphorylation enrichment reported for GCKNRYDKGKP [THAP1_Y14_D17G] please.
0.867

Return the recorded phosphorylation enrichment value; entry: RIAFQYGDTDL [MYBPC3_Y340_V342D]
1.24

Specify reported phosphorylation enrichment for the sequence shown: RRAKGYPIFLF [ITGB2_Y125_D128Y_YF]
0.741
